- assay target: T1, human Trop-2 expressed on cell surface (human, UniProt P09758 27-323)
- T1 sequence (looked up): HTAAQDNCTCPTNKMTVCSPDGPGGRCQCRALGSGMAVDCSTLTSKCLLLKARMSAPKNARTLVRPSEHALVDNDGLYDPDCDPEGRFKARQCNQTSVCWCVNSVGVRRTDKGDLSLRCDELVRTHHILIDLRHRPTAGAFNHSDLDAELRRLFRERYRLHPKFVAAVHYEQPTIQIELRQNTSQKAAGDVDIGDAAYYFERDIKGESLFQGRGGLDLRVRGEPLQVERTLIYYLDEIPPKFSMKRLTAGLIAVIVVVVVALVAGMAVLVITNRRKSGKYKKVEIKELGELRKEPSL
- measurement notes: cell-based or functional assay
readout type: Internalization %, MDA-MB-231, 2 µg/ml, 2 h (%)
Write the number in % without appending the unit.

Find the measured Internalization %, MDA-MB-231, 2 µg/ml, 2 h of 5D4-1 (antibody, V domains shown) VH: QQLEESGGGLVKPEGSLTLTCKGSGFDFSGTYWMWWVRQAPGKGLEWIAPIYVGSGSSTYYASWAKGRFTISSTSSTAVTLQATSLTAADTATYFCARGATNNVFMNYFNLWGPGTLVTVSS VL: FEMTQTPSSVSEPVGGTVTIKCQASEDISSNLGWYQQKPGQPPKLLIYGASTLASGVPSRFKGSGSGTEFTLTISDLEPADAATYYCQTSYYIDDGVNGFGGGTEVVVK and report it. 57

Find the measured Internalization %, MDA-MB-231, 2 µg/ml, 2 h of 63H3 (antibody, V domains shown, Rabbit-derived clone; LEM construct: VH + rabbit IgG CH1 + human IgG1 CH2-CH3) VH: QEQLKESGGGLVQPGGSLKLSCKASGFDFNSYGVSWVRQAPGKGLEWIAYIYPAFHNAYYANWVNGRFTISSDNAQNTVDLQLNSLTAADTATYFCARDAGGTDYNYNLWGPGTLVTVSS VL: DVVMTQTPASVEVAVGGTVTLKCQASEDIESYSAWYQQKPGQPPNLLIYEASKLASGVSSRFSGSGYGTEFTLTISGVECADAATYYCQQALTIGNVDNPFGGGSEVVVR and report it. 37
